- Target system: Phosphatidylinositol 4,5-bisphosphate 3-kinase catalytic subunit gamma isoform (Homo sapiens)
- Sequence (P48736 whole entry, canonical isoform): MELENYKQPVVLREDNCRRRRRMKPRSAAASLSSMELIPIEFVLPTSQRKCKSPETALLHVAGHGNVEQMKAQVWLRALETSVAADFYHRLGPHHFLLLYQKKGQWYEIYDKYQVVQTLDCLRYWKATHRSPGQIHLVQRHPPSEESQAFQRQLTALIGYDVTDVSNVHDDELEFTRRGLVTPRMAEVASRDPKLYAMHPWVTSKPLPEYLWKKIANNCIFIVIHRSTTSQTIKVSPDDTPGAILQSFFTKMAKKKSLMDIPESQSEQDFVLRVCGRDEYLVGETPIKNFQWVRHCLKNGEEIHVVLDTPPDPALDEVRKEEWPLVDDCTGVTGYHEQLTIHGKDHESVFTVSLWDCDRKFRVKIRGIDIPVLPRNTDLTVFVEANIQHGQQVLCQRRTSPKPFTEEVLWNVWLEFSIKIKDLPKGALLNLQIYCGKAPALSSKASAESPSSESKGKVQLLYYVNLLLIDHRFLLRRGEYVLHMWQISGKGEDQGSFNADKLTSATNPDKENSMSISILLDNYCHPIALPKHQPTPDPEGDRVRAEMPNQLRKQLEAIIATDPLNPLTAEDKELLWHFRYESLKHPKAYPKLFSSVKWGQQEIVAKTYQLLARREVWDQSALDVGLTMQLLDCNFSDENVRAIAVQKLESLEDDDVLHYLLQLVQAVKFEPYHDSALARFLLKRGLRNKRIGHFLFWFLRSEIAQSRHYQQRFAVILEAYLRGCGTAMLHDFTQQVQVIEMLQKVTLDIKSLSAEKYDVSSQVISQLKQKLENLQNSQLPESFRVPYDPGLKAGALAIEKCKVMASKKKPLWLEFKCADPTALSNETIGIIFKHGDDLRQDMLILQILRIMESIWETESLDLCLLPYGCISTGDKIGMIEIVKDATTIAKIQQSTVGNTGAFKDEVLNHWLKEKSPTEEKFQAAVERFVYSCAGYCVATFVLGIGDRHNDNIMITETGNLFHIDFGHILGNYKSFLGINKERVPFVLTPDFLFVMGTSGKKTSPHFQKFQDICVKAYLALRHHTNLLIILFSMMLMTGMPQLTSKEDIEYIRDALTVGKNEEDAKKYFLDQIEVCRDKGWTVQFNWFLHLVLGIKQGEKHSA
Measure name: IC50 (µM)

Solved entries:
1. Cc1nc(N)nc(-n2c(NC3CCOCC3)nc3ccccc32)n1	0.03
2. Cc1nc(N)nc(-n2c(Nc3ccc4cn[nH]c4c3)nc3ccccc32)n1	0.2

(A) Cc1nc(N)nc(-n2c(Nc3cn[nH]c3)nc3ccccc32)n1
(B) CNC(=O)c1ccc(Nc2nc3ccccc3n2-c2nc(C)nc(N)n2)o1
(C) Cc1nc(N)nc(-n2c(Nc3n[nH]c4ccccc34)nc3ccccc32)n1
(D) Cc1nc(N)nc(-n2c(Nc3cccc(O)c3)nc3ccccc32)n1
Exam item: list the entries in increasing order of IC50. Your answer should be the labels, listed in the requested order.
D, B, C, A
